Data provenance is the supplement of paper PMC4932681.

System: MCF-7
EXPERIMENT: viability inhibition at highest dose (% inhibition); higher = more growth inhibition
SETUP CONDITIONS: 4-OH-tamoxifen in medium 1 µM; 72 h
RESULT TYPE: viability inhibition at highest dose

CN(C)C[C@@H]1CCn2cc(c3ccccc32)C2=C(C(=O)NC2=O)c2cn(c3ccccc23)CCO1 (drug 10000 nM): 69.5
C[C@]12C=CC(=O)C=C1CC[C@@H]1[C@@H]2[C@@H](O)C[C@@]2(C)[C@H]1CC[C@]2(O)C(=O)CO [Prednisolone] (drug 10000 nM): 17.2
CC(C)C[C@H](NC(=O)[C@@H](COC(C)(C)C)NC(=O)[C@H](Cc1ccc(O)cc1)NC(=O)[C@H](CO)NC(=O)[C@H](Cc1c[nH]c2ccccc12)NC(=O)[C@H](Cc1cnc[nH]1)NC(=O)[C@@H]1CCC(=O)N1)C(=O)N[C@@H](CCCNC(=N)N)C(=O)N1CCC[C@H]1C(=O)NNC(N)=O [Goserelin acetate] (drug 10000 nM): 2.51
COc1cc(Nc2ncc(F)c(Nc3ccc4c(n3)N(COP(=O)(O)O)C(=O)C(C)(C)O4)n2)cc(OC)c1OC (drug 10000 nM): 70.4
O=P1(N(CCCl)CCCl)NCCCO1 (stereo not given) [Clafen (Cyclophosphamide, Endoxan)] (drug 40000 nM): 11
CO[C@H]1C[C@@H]2CC[C@@H](C)[C@@](O)(O2)C(=O)C(=O)N2CCCC[C@H]2C(=O)O[C@H]([C@H](C)C[C@@H]2CC[C@@H](O)[C@H](OC)C2)CC(=O)[C@H](C)/C=C(\C)[C@@H](O)[C@@H](OC)C(=O)[C@H](C)C[C@H](C)/C=C/C=C/C=C/1C [Sirolimus (Rapamycin)] (drug 1000 nM): 35.8
Nc1ccccc1NC(=O)c1ccc(CNc2nccc(-c3cccnc3)n2)cc1 [Mocetotinostat (MGCD0103)] (drug 10000 nM): 62.7
Nc1ncn([C@@H]2O[C@H](CO)[C@@H](O)[C@H]2O)c(=O)n1 [Azacitidine] (drug 10000 nM): -0.966
CO[C@H]1/C=C\C=C(/C)C(=O)NC2=CC(=O)C(NCCN(C)C)=C(C[C@@H](C)C[C@H](OC)[C@H](O)[C@@H](C)/C=C(\C)[C@@H]1OC(N)=O)C2=O [Alvespimycin (17-DMAG)] (drug 1000 nM): 47.8
CO[C@@H]1[C@H](N(C)C(=O)c2ccccc2)C[C@H]2O[C@]1(C)n1c3ccccc3c3c4c(c5c6ccccc6n2c5c31)C(=O)NC4 [Midostaurin (PKC412)] (drug 10000 nM): 17
